Assay: Toxicity in BALB/c mouse assessed as survival at 1 mg/kg/day, ip relative to control
Assay type: organism-based
Set-up: route intraperitoneal
Conditions: in vivo

- smiles.string: "O=C(Cn1ccnc1[N+](=O)[O-])NCc1ccccc1"
  survival [%]: 80

###

List of pIC50 values.
Tested on: Trypanosoma cruzi
Assay: Antitrypanosomal activity against Trypanosoma cruzi (IRHOD/CO/2008/SN3) trypomastigotes infected in Balb/c albino mouse after 24 hrs by Neubauer chamber counting analysis
Type: functional, organism-based
pIC50: −log10 of the molar value.

- smiles.string: "COc1nn(C)c2ccc([N+](=O)[O-])cc12"
  pIC50: 4.61
- smiles.string: "COc1nn(CCOCCN(C)CCOCCn2nc(OC)c3cc([N+](=O)[O-])ccc32)c2ccc([N+](=O)[O-])cc12"
  pIC50: 4.69
- smiles.string: "COc1nn(CCOCCNCCOCCn2nc(OC)c3cc([N+](=O)[O-])ccc32)c2ccc([N+](=O)[O-])cc12"
  pIC50: 4.58
- smiles.string: "COc1nn(CCOCCN)c2ccc([N+](=O)[O-])cc12"
  pIC50: 4.68
- smiles.string: "CNCCOCCn1nc(OC)c2cc([N+](=O)[O-])ccc21"
  pIC50: 4.69
- smiles.string: "CN(CCOCCn1nc(OCc2ccccc2)c2cc([N+](=O)[O-])ccc21)CCOCCn1nc(OCc2ccccc2)c2cc([N+](=O)[O-])ccc21"
  pIC50: 4.78
- smiles.string: "Cn1nc(OCc2ccccc2)c2cc([N+](=O)[O-])ccc21"
  pIC50: 4.92
- smiles.string: "CNCCOCCn1nc(OCc2ccccc2)c2cc([N+](=O)[O-])ccc21"
  pIC50: 4.84

###

Assay: Selectivity index, ratio of IC50 for African green monkey Vero cells to IC50 for Trypanosoma cruzi (IRHOD/CO/2008/SN3) trypomastigotes
Assay type: toxicity, cell-based
Settings: read-out: Ratio IC50
endpoint.name: selectivity ratio

- smiles.string: "COc1nn(CCOCCN(C)CCOCCn2nc(OC)c3cc([N+](=O)[O-])ccc32)c2ccc([N+](=O)[O-])cc12"
  endpoint.name: "selectivity ratio"
  obs.value: 6.3
- smiles.string: "CNCCOCCn1nc(OCc2ccccc2)c2cc([N+](=O)[O-])ccc21"
  endpoint.name: "selectivity ratio"
  obs.value: 14.7
- smiles.string: "CN(CCOCCn1nc(OCc2ccccc2)c2cc([N+](=O)[O-])ccc21)CCOCCn1nc(OCc2ccccc2)c2cc([N+](=O)[O-])ccc21"
  endpoint.name: "selectivity ratio"
  obs.value: 7.8
- smiles.string: "COc1nn(CCOCCNCCOCCn2nc(OC)c3cc([N+](=O)[O-])ccc32)c2ccc([N+](=O)[O-])cc12"
  endpoint.name: "selectivity ratio"
  obs.value: 0.6
- smiles.string: "COc1nn(CCOCCN)c2ccc([N+](=O)[O-])cc12"
  endpoint.name: "selectivity ratio"
  obs.value: 4.2
- smiles.string: "COc1nn(C)c2ccc([N+](=O)[O-])cc12"
  endpoint.name: "selectivity ratio"
  obs.value: 7.4
- smiles.string: "CNCCOCCn1nc(OC)c2cc([N+](=O)[O-])ccc21"
  endpoint.name: "selectivity ratio"
  obs.value: 4.3
- smiles.string: "Cn1nc(OCc2ccccc2)c2cc([N+](=O)[O-])ccc21"
  endpoint.name: "selectivity ratio"
  obs.value: 16.1

###

System: Trypanosoma cruzi
Test: Antitrypanosomal activity against Trypanosoma cruzi (IRHOD/CO/2008/SN3) amastigotes infected in African green monkey Vero cells after 72 hrs by Giemsa staining-based microscopic analysis
Assay type: functional, organism-based
endpoint.name: IC50 (µM)

- smiles.string: "CNCCOCCn1nc(OCc2ccccc2)c2cc([N+](=O)[O-])ccc21"
  obs.value: 16.6
- smiles.string: "COc1nn(C)c2ccc([N+](=O)[O-])cc12"
  obs.value: 32.6
- smiles.string: "COc1nn(CCOCCNCCOCCn2nc(OC)c3cc([N+](=O)[O-])ccc32)c2ccc([N+](=O)[O-])cc12"
  obs.value: 25.7

###

Tested on: Trypanosoma cruzi
Assay: Antitrypanosomal activity against Trypanosoma cruzi (IRHOD/CO/2008/SN3) amastigotes infected in African green monkey Vero cells after 72 hrs by Giemsa staining-based microscopic analysis
Type: functional, organism-based
pIC50: −log10 of the molar value.
List of pIC50 values.

- smiles.string: "Cn1nc(OCc2ccccc2)c2cc([N+](=O)[O-])ccc21"
  pIC50: 4.85
- smiles.string: "CN(CCOCCn1nc(OCc2ccccc2)c2cc([N+](=O)[O-])ccc21)CCOCCn1nc(OCc2ccccc2)c2cc([N+](=O)[O-])ccc21"
  pIC50: 4.78
- smiles.string: "COc1nn(CCOCCN)c2ccc([N+](=O)[O-])cc12"
  pIC50: 4.58
- smiles.string: "COc1nn(CCOCCN(C)CCOCCn2nc(OC)c3cc([N+](=O)[O-])ccc32)c2ccc([N+](=O)[O-])cc12"
  pIC50: 4.55
- smiles.string: "CNCCOCCn1nc(OC)c2cc([N+](=O)[O-])ccc21"
  pIC50: 4.63
